test system: Plasmodium falciparum; experiment: MMV: Compounds (1uM) were screened in a 72hr growth assay monitored by flow cytometry both in the presence and absence of supplemental isopentenyl pyrophosphate (IPP) 200uM. Compounds which fail to show anti-malarial activity when chemically rescued by IPP are therefore specific to the apicoplast. The values are expressed as the ratio of the corresponding activity with and without IPP, respectively.; assay type: functional, W2
Binary call on Ratio with cut-off 0.9: strictly below means 1 (yes), and equality or higher means 0 (no).

Please indicate whether the reported Ratio of COc1ccc(CCN2CCC(CN(C)Cc3cnn(-c4ccccc4)c3)CC2)cc1 is strictly below 0.9.
1 (yes)

Please indicate whether the reported Ratio of CN1c2ccccc2N(C)C1c1ccc2c(c1)OCO2 is strictly below 0.9.
1 (yes)

Please indicate whether the reported Ratio of O=C(NC1CCCC1)c1ccc(N2CCC(NCc3cccc(C(F)(F)F)c3)CC2)cc1 is strictly below 0.9.
1 (yes)

Please indicate whether the reported Ratio of CCN(CC)CCCNc1nc(-c2ccc(Cl)cc2)nc2ccccc12 is strictly below 0.9.
0 (no)

Please indicate whether the reported Ratio of COc1cc(C(=O)Nc2nc3c(cc4c5c(cccc53)CC4)s2)cc(OC)c1OC is strictly below 0.9.
1 (yes)

Please indicate whether the reported Ratio of CC1CCN(Cc2c(O)ccc3cc(-c4nc5ccccc5s4)c(=O)oc23)CC1 is strictly below 0.9.
0 (no)

Please indicate whether the reported Ratio of CC1CCN(Cc2ccc(NC(=O)c3cc4ccc5cccnc5c4[nH]3)cc2)CC1 is strictly below 0.9.
0 (no)

Please indicate whether the reported Ratio of CCc1ccc(Nc2cc(C)nc3nc(C)nn23)cc1 is strictly below 0.9.
0 (no)

Please indicate whether the reported Ratio of Cc1ccc(-c2nc3ccccc3o2)cc1NCc1cc(Cc2ccccc2)ccc1O is strictly below 0.9.
0 (no)

* * *

test system: Plasmodium falciparum; experiment: MMV: Compounds (1uM) were screened in a 72hr growth assay monitored by flow cytometry both in the presence and absence of supplemental isopentenyl pyrophosphate (IPP) 200uM. Compounds which fail to show anti-malarial activity when chemically rescued by IPP are therefore specific to the apicoplast. The values are expressed as the ratio of the corresponding activity with and without IPP, respectively.; assay type: functional, W2
Record form. Attribute: Ratio. Fill in for each entry.
# respond with the number and nothing more

Complete the entry with Ratio for c1ccc2cc3c(Nc4ccc(N5CCOCC5)cc4)ccnc3cc2c1
0.7931

Complete the entry with Ratio for CC(C)(C)c1ccc2c(c1)CN(Cc1ccc(Cl)cc1)CO2
0.8966

Complete the entry with Ratio for O=C(Nc1ccccc1O)c1ccc(-c2ccc(Cl)cc2Cl)o1
0.8413

Complete the entry with Ratio for N=c1n(CCN2CCCCC2)c2ccccc2n1CC(=O)c1ccc(Cl)c(Cl)c1
1.14

Complete the entry with Ratio for CCOc1c(Br)cc(C2C(C(=O)OC)=CN(C)C=C2C(=O)OC)cc1OC
1.02

Complete the entry with Ratio for CCCCN(CCCC)S(=O)(=O)c1ccc(NC(=O)c2ccco2)cc1
0.8649

Complete the entry with Ratio for CCC1(C)CC(CCNCc2ccccc2O)(c2ccc(C)cc2)CCO1 (stereo unspecified)
0.8378

Complete the entry with Ratio for CCN(Cc1ccccc1)C1CCN(Cc2cc(Br)ccc2O)CC1.O=C(O)C(=O)O
0.9701

Complete the entry with Ratio for CCOc1ccccc1NC(=O)CN1CCN(C(=O)c2ccco2)CC1
0.906

Complete the entry with Ratio for CCOc1ccc2nc(C)cc(Nc3ccc(N(C)C)cc3)c2c1.Cl
1.135

Complete the entry with Ratio for OC1=C2C(=Nc3ccccc3SC2c2ccc(Br)cc2)c2ccccc21 (stereo unspecified)
1.068
